Molecular target: UniProt:Q14524
Sequence (Q14524 whole entry): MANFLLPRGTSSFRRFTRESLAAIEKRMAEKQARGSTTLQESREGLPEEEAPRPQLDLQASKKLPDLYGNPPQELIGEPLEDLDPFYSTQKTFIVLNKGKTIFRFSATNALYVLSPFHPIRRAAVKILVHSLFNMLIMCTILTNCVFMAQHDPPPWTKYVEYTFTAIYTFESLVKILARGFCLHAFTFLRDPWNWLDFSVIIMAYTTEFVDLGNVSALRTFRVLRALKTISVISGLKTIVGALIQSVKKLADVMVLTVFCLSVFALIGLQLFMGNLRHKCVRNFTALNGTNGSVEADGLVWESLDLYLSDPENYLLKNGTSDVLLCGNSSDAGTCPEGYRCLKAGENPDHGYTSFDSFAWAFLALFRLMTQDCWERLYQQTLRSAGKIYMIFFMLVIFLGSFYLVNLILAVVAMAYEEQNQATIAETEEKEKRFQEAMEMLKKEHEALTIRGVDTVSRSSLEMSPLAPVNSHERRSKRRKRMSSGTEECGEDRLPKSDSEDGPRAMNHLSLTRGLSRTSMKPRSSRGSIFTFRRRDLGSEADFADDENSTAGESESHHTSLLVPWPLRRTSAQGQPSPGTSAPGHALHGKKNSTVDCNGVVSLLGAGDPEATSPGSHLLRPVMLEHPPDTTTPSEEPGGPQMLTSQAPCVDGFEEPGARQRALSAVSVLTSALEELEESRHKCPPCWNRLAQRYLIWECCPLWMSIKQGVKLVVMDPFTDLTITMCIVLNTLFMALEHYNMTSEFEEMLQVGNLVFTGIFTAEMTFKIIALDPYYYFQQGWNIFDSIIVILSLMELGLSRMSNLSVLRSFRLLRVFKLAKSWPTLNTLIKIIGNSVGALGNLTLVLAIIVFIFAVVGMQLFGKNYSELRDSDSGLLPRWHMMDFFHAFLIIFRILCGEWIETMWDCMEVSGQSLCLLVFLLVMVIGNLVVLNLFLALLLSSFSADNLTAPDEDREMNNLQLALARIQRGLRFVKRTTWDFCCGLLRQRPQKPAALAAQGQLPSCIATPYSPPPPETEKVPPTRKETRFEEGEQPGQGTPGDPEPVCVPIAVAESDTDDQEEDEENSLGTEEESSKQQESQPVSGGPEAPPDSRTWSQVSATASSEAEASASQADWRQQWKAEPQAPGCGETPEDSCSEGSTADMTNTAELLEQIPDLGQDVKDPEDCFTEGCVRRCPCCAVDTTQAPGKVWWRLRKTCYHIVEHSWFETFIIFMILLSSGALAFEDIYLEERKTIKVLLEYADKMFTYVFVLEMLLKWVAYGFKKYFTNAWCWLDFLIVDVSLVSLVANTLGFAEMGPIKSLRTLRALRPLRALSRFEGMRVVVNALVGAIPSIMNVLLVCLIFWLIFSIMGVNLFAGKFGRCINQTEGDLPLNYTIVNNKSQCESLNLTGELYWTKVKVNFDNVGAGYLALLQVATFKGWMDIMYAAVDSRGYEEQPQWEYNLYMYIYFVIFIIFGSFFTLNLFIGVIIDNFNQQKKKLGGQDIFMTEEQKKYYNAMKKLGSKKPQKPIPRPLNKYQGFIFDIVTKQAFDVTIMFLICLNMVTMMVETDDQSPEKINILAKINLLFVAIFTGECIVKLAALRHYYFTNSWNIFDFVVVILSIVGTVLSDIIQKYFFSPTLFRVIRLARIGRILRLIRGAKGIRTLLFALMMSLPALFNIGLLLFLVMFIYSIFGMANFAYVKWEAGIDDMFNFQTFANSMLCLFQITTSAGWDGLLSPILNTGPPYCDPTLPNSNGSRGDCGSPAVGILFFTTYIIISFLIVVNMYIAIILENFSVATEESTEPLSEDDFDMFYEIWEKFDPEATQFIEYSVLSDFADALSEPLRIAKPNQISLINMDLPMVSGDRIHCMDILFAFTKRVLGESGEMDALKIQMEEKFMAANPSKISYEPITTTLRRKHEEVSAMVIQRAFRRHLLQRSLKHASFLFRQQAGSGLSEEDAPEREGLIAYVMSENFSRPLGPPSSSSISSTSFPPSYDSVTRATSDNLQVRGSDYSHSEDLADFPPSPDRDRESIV
Test: Late INa screening assay (QPatch whole cell patch clamp)
Type: cell-based
Conditions: percent block of late INa, compound at 1 μM, 10 μM Tefluthrin, HEK293 hNav1.5; read-out: Late INa 1 μM
Exercise: for every item that follows, state its recorded inhibition at 1 µM.
All answers are understood in %, so give the number only.

**Q:** Bench note: what inhibition at 1 µM did O=c1c2cc(-c3ccc(OC(F)(F)F)cc3)ccc2nnn1Cc1coc(C2CC2)n1 [II-100] show?
**A:** 50

**Q:** # lookup: inhibition at 1 µM of O=C(c1cncnc1)N1CCc2ccc(-c3ccc(C(F)(F)F)cc3)cc2C1 [IX-33]
**A:** 21

**Q:** Form field: reported inhibition at 1 µM of Cc1nonc1Cn1ncc2ccc(-c3ccc(OC(F)(F)F)cc3)cc2c1=O [III-11]
**A:** 30

**Q:** Would you mind telling me what inhibition at 1 µM value was observed for O=c1c2cc(-c3ccc(OC(F)(F)F)cc3)ccc2cnn1CCc1ccccc1 [III-8] ?
**A:** 19

**Q:** What value of inhibition at 1 µM has been reported for the following molecule? Cc1noc(Cn2cnc3ccc(-c4ccc(OC(F)(F)F)cc4)cc3c2=O)n1 [IV-6]
**A:** 49

**Q:** Fill in: inhibition at 1 µM of O=c1c2cc(-c3ccc(OC(F)(F)F)cc3)ccc2nnn1Cc1nnc(C2CC2)o1 [II-67] is ___
**A:** 47

**Q:** Param item = O=c1c2cc(-c3ccc(OC(F)(F)F)cc3)ccc2nnn1CCc1ccncn1 [II-17] ; retrieve measured inhibition at 1 µM.
**A:** 61

**Q:** Using the record for O=C1c2cc(-c3ccc(OC(F)(F)F)cc3)ccc2CCN1Cc1ncccn1 [IX-1] , report its inhibition at 1 µM.
**A:** 32

**Q:** Value lookup for inhibition at 1 µM; key = COC(=O)C1(Cn2nnc3ccc(-c4ccc(OC(F)(F)F)cc4)cc3c2=O)CC1 [II-55]
**A:** 58

**Q:** Quick one: inhibition at 1 µM for O=c1c2cc(-c3ccc(OC(F)(F)F)cc3)ccc2nnn1Cc1coc(C2CCC2)n1 [II-98] ?
**A:** 41

**Q:** Name the reported inhibition at 1 µM value associated with the molecule O=c1c2cc(-c3ccc(OC(F)(F)F)cc3)ccc2nnn1C1CC1 [II-22]
**A:** 21

**Q:** Consider the molecule shown here: Cc1noc(Cn2nnc3ccc(-c4ccc(OC(F)(F)F)cc4)cc3c2=O)n1 [II-3] What is its recorded inhibition at 1 µM?
**A:** 53

**Q:** Which inhibition at 1 µM reading was recorded for the molecule CC1Oc2ccc(-c3ccc(OC(F)(F)F)cc3)cc2C(=O)N1Cc1ncccn1 (stereo not shown) [VIII-7] ?
**A:** 22

**Q:** Tell me the measured inhibition at 1 µM of Cc1cccc(CCn2ncc3ccc(-c4ccc(OC(F)(F)F)cc4)cc3c2=O)n1 [III-18] , please.
**A:** 37

**Q:** Reported inhibition at 1 µM, molecule O=C1c2cc(-c3ccc(C(F)(F)F)cc3)ccc2CCN1Cc1ncccn1 [IX-3] : ____
**A:** 29

**Q:** What value of measured inhibition at 1 µM is listed for O=c1c2cc(C#Cc3ccc(OC(F)(F)F)cc3)ccc2nnn1CCOc1ncccn1 [VII-1] ?
**A:** 55

**Q:** Field request: inhibition at 1 µM | item: O=c1c2cc(-c3ccc(OC(F)(F)F)cc3)ccc2cnn1Cc1cccnc1C1CC1 [III-20]
**A:** 28

**Q:** If you can, please state the reported inhibition at 1 µM value of O=c1c2cc(-c3ccc(OC(F)(F)F)cc3)ccc2nnn1CCc1ncccn1 [II-18] .
**A:** 66

**Q:** # input molecule: CS(=O)(=O)C1CN(C(=O)N2CCc3ccc(-c4ccc(C(F)(F)F)cc4)cc3C2)C1 [IX-104] ; wanted: its inhibition at 1 µM
**A:** 20
